Source of measurements: patent US20240059710A1

- system under test: GDP-loaded HIS-KRAS (G12D, aa 1-169) (Homo sapiens, UniProt P01116, G12D)
- Construct: GDP-loaded HIS-KRAS (G12D, aa 1-169)
- Sequence (P01116 1-169 isoform P01116-2 G12D): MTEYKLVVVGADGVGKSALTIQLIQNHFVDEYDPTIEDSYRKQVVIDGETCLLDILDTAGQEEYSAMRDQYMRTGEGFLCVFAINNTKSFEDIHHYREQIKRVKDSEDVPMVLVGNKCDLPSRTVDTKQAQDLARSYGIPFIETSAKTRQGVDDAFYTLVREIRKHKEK
- measurement notes: SOS1 catalyzed nucleotide exchange assay
- measurement setup: SOS1 ExD, TR-FRET, 4 hours at 25° C.
- Excerpt: 1. SOS1 Catalyzed Nucleotide Exchange Assay […]
Exercise: for every item that follows, state its recorded pIC50.
Convention used: pIC50 is expressed as -log10 of the molar concentration.

Specify pIC50 for C#Cc1cccc2cc(O)cc(-c3c(C)cc4c(N5CC6CCC(C5)N6)nc(OCC5(CN6CCOCC6)CC5)nc4c3F)c12 (single isomer, unassigned) [Compound 40B] and stop.
9.08

# return recorded pIC50 for input C#Cc1cccc2cc(O)cc(-c3ccc4c(N5CC6CCC(C5)N6)nc(OCC5(CN6CCSCC6)CC5)nc4c3F)c12 [Compound 78]
8.06

Identify pIC50 associated with the compound C#Cc1cccc2cc(O)cc(-c3cc4nc(OC[C@@]56CCCN5C[C@H](F)C6)nc(N5CC6CCC(C5)N6)c4cc3F)c12 [Compound 79]
8.32

Return value of pIC50 for input C#Cc1cccc2cc(O)cc(-c3cc4nc(OCC5(CN6CCOCC6)CC5)nc(N5CC6CCC(C5)N6)c4cc3CC)c12 [Compound 109] , no commentary.
7.31

Entry C#Cc1c(F)ccc2cc(O)cc(-c3c(Cl)cc4c(N5CC6CCC(C5)N6)nc(OCC5(CN6CCOCC6)CC5)nc4c3F)c12 (single isomer, unassigned) [Compound 99A] needs its pIC50 filled in; supply it.
7.00

* * *

- Test system: AGS
- measurement notes: Cell growth inhibition assay (AGS)
- Assay type: cell-based
- measurement setup: Homo sapiens, 144 h, 6 days incubation, CellTiter-Glo
I'd be grateful if you could share measured IC50 for these entries.
Value expressed in nM; do not type the unit.

Supply recorded IC50 for C#Cc1cccc2cc(O)cc(-c3ccc4c(N5CC6CC(C5)N6)nc(OCC5(CN6CCOCC6)CC5)nc4c3F)c12 [Compound 55] here.
76.9

Name the recorded IC50 of the item C#Cc1cccc2cc(O)cc(-c3c(Cl)cc4c(N5CC6CCC(C5)N6)nc(OCC5(CN6CCOCC6)CC5)nc4c3Cl)c12 (single isomer, unassigned) [Compound 107B] in your answer.
150

Query IC50 for C#Cc1cccc2cc(O)cc(-c3c(F)cc4c(N5CC6CCC(C5)N6)nc(OCC5(CN6CCOCC6)CC5)nc4c3F)c12 [Compound 41]
6.96

Consider the compound C#Cc1cccc2cc(O)cc(-c3cc4nc(OC[C@@]56CCCN5C[C@H](F)C6)nc(N5CC6CCC(C5)N6)c4cc3Cl)c12 [Compound 97] . State its measured IC50.
45.3

Quickly give me recorded IC50 for C#Cc1c(F)ccc2cc(O)cc(-c3ccc4c(N5CC6CCC(C5)N6)nc(OCC5(CN6CCC(O)CC6)CC5)nc4c3F)c12 [Compound 76]
72.1

Indicate its recorded IC50; the compound in question is C#Cc1cccc2cc(O)cc(-c3c(CO)cc4c(N5CC6CCC(C5)N6)nc(OCC5(CN6CCOCC6)CC5)nc4c3F)c12 [Compound 102]
82.5

Look up IC50 of C#Cc1cccc2cc(O)cc(-c3ccc4c(N5CC6CCC(C5)N6)nc(OCC5(CN6CCO[C@H](C)C6)CC5)nc4c3F)c12 [Compound 68] and report it.
3.26

Specify reported IC50 for the compound shown: C#Cc1cccc2cc(O)cc(-c3cc4nc(OCC5(CN6CCOCC6)CC5)nc(N5CC6CCC(C5)N6)c4cc3C#N)c12 [Compound 61]
130

Give reported IC50 value for C#Cc1cccc2cc(O)cc(-c3cc4nc(OC[C@@]56CCCN5C[C@H](F)C6)nc(N5CC6CCC(C5)N6)c4cc3F)c12 [Compound 79]
7.75
